System: Radical scavenging activity
quantity-kind: IC50 (µM)

compound	value-observed
Cc1c(C)c2c(c(C)c1O)CCC(C)(C(=O)OCc1cc(=O)c(O)co1)O2 (racemic)	11.6

(I) COc1coc(COC(=O)C2(C)CCc3c(C)c(O)c(C)c(C)c3O2)cc1=O (stereo not given)
(II) Cc1c(C)c2c(c(C)c1O)CCC(C)(C(=O)O)O2 (stereo not given)
Endpoint returns whichever of I and II has the numerically higher IC50. Could you answer with the label of the item you picked?
I
(I: 19.8 µM, II: 10.1 µM)

---

Protein target, amino acids: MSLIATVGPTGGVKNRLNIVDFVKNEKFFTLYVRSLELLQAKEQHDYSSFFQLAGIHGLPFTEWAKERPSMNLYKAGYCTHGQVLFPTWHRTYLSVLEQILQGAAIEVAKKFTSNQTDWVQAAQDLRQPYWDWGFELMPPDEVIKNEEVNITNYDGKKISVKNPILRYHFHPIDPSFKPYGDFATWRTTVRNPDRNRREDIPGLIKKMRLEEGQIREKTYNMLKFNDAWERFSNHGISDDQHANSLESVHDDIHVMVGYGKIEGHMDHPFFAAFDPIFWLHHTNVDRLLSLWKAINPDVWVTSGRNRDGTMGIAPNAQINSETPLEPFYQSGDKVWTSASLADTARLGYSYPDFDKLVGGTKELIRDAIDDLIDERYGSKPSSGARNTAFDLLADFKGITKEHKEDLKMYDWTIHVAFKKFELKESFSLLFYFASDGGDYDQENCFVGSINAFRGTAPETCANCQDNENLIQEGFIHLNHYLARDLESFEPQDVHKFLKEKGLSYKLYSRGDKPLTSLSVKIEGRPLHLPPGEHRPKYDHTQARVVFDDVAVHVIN
quantity-kind: IC50 (µM)
Numbers only; they are read as µM.

Respond only with IC50 recorded for O=C(OCc1cc(=O)c(O)co1)c1ccc2cc(O)ccc2c1
9.65
